System: A549
METHOD_DESCRIPTION: Antiproliferative activity against human A549 cells measured after 72 hrs by SRB staining method
Format: functional, cell-based
CONDITIONS_USED: A549, 72 h
REPORTED_METRIC: pIC50
Answers are plain numbers, as −log10 of the molar value.

Asked: I am curious: what pIC50 value has been reported for CC(=O)N1CCN(Cc2cccc(Nc3ncc4ccn(CCCNC(=O)C5CCC5)c4n3)c2)CC1 ?
Given back: 4.75

###

TEST_TARGET: Serine/threonine-protein kinase TBK1 (Homo sapiens) (UniProt Q9UHD2)
Sequence (Q9UHD2 whole entry): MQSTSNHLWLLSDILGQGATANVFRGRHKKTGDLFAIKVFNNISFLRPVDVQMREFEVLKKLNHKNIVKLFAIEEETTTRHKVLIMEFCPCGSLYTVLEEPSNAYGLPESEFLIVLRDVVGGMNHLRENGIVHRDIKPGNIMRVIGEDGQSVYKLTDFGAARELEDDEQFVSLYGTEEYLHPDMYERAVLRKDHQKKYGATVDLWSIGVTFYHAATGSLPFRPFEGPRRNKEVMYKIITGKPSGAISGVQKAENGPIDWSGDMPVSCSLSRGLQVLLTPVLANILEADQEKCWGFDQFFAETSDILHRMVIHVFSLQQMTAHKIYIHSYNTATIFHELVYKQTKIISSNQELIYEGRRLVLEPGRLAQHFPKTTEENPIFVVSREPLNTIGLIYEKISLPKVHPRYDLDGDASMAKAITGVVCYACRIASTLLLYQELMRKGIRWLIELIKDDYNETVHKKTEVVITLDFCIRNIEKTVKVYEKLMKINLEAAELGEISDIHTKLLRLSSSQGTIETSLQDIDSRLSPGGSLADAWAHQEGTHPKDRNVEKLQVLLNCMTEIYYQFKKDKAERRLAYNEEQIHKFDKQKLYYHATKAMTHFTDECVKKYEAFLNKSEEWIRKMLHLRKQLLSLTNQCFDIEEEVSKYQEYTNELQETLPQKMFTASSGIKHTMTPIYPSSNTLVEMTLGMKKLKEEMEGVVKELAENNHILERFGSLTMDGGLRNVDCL
METHOD_DESCRIPTION: Inhibition of TBK1 (unknown origin) incubated at 1000 nM for 1 hr in presence of ATP by FRET based Z'-Lyte assay relative to control
REPORTED_METRIC: inhibition

Record excerpt, results attached:
Asked: What value of inhibition has been recorded for this entry: O=C(NCc1cccc(-n2ccc3cnc(Nc4cccc(CN5CCOCC5)c4)nc32)c1)C1CCC1
Given back: 72.8%

Asked: Repeat for the following compound: O=C(Nc1cccc(Cn2ccc3cnc(Nc4cccc(CN5CCOCC5)c4)nc32)c1)C1CCC1
Given back: < 0%

Asked: Please give the result for O=C(Nc1ccc(-n2ccc3cnc(Nc4cccc(CN5CCOCC5)c4)nc32)nc1)C1CCC1 too.
Given back: 1.8%

Asked: Please do the same for O=C(NCCCN1C(=O)Cc2cnc(Nc3cccc(CN4CCOCC4)c3)nc21)C1CCC1 as well.
Given back: 0.6%

Asked: Same read-out for O=C(C1CCC1)N1CCC(n2ccc3cnc(Nc4cccc(CN5CCOCC5)c4)nc32)CC1 ?
Given back: < 0%

Asked: Next up: O=C(NCCCn1ncc2cnc(Nc3cccc(CN4CCOCC4)c3)nc21)C1CCC1
Given back: 29%

Hi! Can you tell me inhibition for each of these compounds?
1. Cc1cn(CCCNC(=O)C2CCC2)c2nc(Nc3cccc(CN4CCOCC4)c3)ncc12
2. CC(=O)N1CCN(Cc2cccc(Nc3ncc4ccn(CCCNC(=O)C5CCC5)c4n3)c2)CC1
3. O=C(C1CCC1)N1CCC(n2ccc3cnc(Nc4cccc(CN5CCOCC5)c4)nc32)C1 (centres undefined)

Given back:
1. 78.7%
2. 89%
3. < 0%

###

What inhibition was measured for each of the following?
TEST_TARGET: Serine/threonine-protein kinase TBK1 (Homo sapiens)
METHOD_DESCRIPTION: Inhibition of TBK1 (unknown origin) incubated at 10 nM for 1 hr in presence of ATP by FRET based Z'-Lyte assay relative to control
Give bare numbers, in %.

Asked: Which inhibition reading was recorded for the molecule O=C(NCCCn1cc(Br)c2cnc(Nc3cccc(CN4CCOCC4)c3)nc21)C1CCC1 ?
Given back: 1.33

Asked: Also CC(=O)N1CCN(Cc2cccc(Nc3ncc4ccn(CCCNC(=O)C5CCC5)c4n3)c2)CC1 , if possible.
Given back: 56.7

Please give inhibition, item by item, for the list that follows.
1. CN1CCN(Cc2cccc(Nc3ncc4ccn(CCCNC(=O)C5CCC5)c4n3)c2)CC1
2. O=C(NCCCn1ccc2cnc(Nc3cccc(CN4CCOCC4)c3)nc21)C1CCC1
3. O=C(NCCCn1ccc2cnc(Nc3cccc(CN4CCN(C5COC5)CC4)c3)nc21)C1CCC1
4. COCCN(C)Cc1cccc(Nc2ncc3ccn(CCCNC(=O)C4CCC4)c3n2)c1

Given back:
1: -3.2; 2: 23.3; 3: 14.7; 4: 23

Measured values drawn from ChEMBL document CHEMBL5352492 for this set.
